biological target: Protein Mdm4 (Homo sapiens) + E3 ubiquitin-protein ligase Mdm2 (Homo sapiens) (UniProt O15151+Q00987); assay: inhibitors of human Mdm2-MdmX association, primary screen, cell-based, luminescence, split luciferase, SaOS-2, uHTS (AID 485346); conditions: SaOS-2 split-luciferase Mdm2/MdmX complementation, at 8 µM, active compounds read high
Sequence (O15151 whole entry, looked up): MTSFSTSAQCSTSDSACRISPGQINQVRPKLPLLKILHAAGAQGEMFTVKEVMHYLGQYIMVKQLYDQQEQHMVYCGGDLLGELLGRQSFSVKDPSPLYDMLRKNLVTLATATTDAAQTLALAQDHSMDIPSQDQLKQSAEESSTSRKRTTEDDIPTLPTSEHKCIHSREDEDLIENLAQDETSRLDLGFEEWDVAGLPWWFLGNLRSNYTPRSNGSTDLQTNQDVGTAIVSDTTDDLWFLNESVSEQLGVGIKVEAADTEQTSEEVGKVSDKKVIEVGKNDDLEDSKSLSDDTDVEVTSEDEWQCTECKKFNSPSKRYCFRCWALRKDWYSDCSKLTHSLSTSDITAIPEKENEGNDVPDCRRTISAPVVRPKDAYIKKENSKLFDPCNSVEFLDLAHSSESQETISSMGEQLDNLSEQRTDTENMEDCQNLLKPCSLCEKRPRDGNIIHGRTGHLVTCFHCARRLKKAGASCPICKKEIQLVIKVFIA
Sequence (Q00987 whole entry, looked up): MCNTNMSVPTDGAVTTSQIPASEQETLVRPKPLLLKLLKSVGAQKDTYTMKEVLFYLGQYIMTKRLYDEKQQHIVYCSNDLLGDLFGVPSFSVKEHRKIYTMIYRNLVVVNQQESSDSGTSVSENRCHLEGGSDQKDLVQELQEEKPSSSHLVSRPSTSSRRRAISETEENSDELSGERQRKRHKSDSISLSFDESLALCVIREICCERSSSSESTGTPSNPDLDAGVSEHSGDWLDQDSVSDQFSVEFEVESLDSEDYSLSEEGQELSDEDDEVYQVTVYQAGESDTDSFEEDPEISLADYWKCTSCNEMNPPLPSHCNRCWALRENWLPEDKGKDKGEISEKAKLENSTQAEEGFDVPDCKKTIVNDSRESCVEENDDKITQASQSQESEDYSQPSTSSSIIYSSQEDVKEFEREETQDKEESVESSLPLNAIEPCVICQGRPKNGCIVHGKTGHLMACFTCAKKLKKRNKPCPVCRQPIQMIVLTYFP
The whole screen tested about 330,000 compounds, of which about 10,000 (3%) were called active. The sample holds actives, similar compounds and a random draw of the others, so the mix is not that of the screen.
Measurement Label: inhibition (%)
Express your answer in %, writing the number without its unit.

Please review the entries below; each comes with its answer.
Cc1oc2c(c1C(=O)N1CCOCC1)C(=O)c1ccccc1C2=O    53.6
O=C(NCc1cccs1)c1ccc2c(c1)ncn2C1CCCC1    -11.4
O=C(NNC(=O)C(O)c1ccccc1)NC1CCCCC1 (stereo unspecified)    16.7
NC(=O)COc1ccccc1C(=O)NC12CC3CC(CC(C3)C1)C2    3.86
CCCn1c(O)c(CN2CCCC(C)C2)c(C)c(C#N)c1=O (stereo unspecified)    -48.3
Cc1noc(C)c1C(=O)NCC1COc2ccccc2O1 (stereo unspecified)    26.4
Cc1cc(C)nc(S/C=C/C(=O)c2ccccc2)n1    65.8
CCCc1cc(=O)[nH]c(SCC(=O)Nc2ccc(C(=O)Nc3ccccc3OC)cc2)n1    21.4
COC(=O)C1=C(C(=O)OC)[C@@H]2N(C)c3ccccc3[C@@]23C[C@@H](C(=O)OC)N(C(=O)c2ccco2)C3=N1    30
CC(=NC1CCN(Cc2ccccc2)CC1)c1c(O)[nH]c(=O)[nH]c1=O    10.7

In: Need inhibition, item Cn1cc(/C=C/c2nc3ccccc3c(=O)n2-c2cccc([N+](=O)[O-])c2)c2ccccc21
Out: 72.2

In: Need inhibition, item CN(C(=O)c1cccc(NC(=O)Cc2ccc([N+](=O)[O-])cc2)c1)C1CCC1
Out: 15.3

In: Need inhibition, item COc1ccccc1C(=O)NC(=O)COC(=O)C1CC1
Out: -22.8

====

target: Protein Mdm4 (Homo sapiens) + E3 ubiquitin-protein ligase Mdm2 (Homo sapiens) (UniProt O15151+Q00987); assay: inhibitors of human Mdm2-MdmX association, primary screen, cell-based, luminescence, split luciferase, SaOS-2, uHTS (AID 485346); conditions: SaOS-2 split-luciferase Mdm2/MdmX complementation, at 8 µM
Screen size: about 330,000 compounds; about 10,000 (3%) were called active.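 Rule for the calls: active = inhibition of at least 50% at 8 µM in the primary screen; inactive = the rest.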 The sample as a whole holds a higher share of actives than the screen did.
Form entry, call: pick from Y = active, N = inactive

Cn1c(=O)n(C)c2cc(C(=O)Nc3ccc(Br)cc3)ccc21    Y
Cc1ccc(C)c(N2CCN(S(=O)(=O)c3c(C)[nH]c(C)c3C(=O)N3CCCC3)CC2)c1    N

In: Called result for O=C(CCNC(=O)c1ccccc1Cl)NCc1ccco1
Out: N

====

biological target: Protein Mdm4 (Homo sapiens) + E3 ubiquitin-protein ligase Mdm2 (Homo sapiens) (UniProt O15151+Q00987); assay: inhibitors of human Mdm2-MdmX association, primary screen, cell-based, luminescence, split luciferase, SaOS-2, uHTS (AID 485346); conditions: SaOS-2 split-luciferase Mdm2/MdmX complementation, at 8 µM, active compounds read high
Hit rate of the full screen: of about 330,000 compounds, about 10,000 (3%) were called active. Shown is part of a subset that was picked to be rich in actives.
Outcome label depends on inhibition relative to 10%: at/above gives Condition met, below gives Condition not met.

CCN(CC(=O)Nc1c(F)cccc1F)C(=O)c1ccc(-c2ccccc2)cc1    Condition not met
CC(Oc1ccc(F)cc1)C(=O)Nc1cc(S(=O)(=O)N2CCOCC2)ccc1N1CCN(C)CC1 (centres undefined)    Condition met
COc1cc(OC)c(OC)cc1/C=N/Nc1ncnc2c1[nH]c1ccc(C)cc12    Condition met

In: Quick check: does O=C(NNC(=O)C1C2CCC(C2)C1C(=O)O)c1ccc(Cl)cc1 (centres undefined) have inhibition greater than or equal to 10%?
Out: Condition not met

In: Quick check: does Cc1cc(C)n(-c2ccc(NC(=O)C3CCCCN3C(=O)c3cccs3)cc2)n1 (centres undefined) have inhibition greater than or equal to 10%?
Out: Condition met

In: Quick check: does Cc1ncn2cc(-c3ccc(Cl)cc3Cl)[nH]c(=O)c12 have inhibition greater than or equal to 10%?
Out: Condition not met

In: Quick check: does COCCOC(=O)c1c(C)oc2cc(Br)c(OCC(N)=O)cc12 have inhibition greater than or equal to 10%?
Out: Condition not met
